Data origin: the supplement of paper PMC11732987

- measurement_target: VCPIP1 (UniProt Q96JH7)
- Sequence (Q96JH7 whole entry, the tested form may be a part): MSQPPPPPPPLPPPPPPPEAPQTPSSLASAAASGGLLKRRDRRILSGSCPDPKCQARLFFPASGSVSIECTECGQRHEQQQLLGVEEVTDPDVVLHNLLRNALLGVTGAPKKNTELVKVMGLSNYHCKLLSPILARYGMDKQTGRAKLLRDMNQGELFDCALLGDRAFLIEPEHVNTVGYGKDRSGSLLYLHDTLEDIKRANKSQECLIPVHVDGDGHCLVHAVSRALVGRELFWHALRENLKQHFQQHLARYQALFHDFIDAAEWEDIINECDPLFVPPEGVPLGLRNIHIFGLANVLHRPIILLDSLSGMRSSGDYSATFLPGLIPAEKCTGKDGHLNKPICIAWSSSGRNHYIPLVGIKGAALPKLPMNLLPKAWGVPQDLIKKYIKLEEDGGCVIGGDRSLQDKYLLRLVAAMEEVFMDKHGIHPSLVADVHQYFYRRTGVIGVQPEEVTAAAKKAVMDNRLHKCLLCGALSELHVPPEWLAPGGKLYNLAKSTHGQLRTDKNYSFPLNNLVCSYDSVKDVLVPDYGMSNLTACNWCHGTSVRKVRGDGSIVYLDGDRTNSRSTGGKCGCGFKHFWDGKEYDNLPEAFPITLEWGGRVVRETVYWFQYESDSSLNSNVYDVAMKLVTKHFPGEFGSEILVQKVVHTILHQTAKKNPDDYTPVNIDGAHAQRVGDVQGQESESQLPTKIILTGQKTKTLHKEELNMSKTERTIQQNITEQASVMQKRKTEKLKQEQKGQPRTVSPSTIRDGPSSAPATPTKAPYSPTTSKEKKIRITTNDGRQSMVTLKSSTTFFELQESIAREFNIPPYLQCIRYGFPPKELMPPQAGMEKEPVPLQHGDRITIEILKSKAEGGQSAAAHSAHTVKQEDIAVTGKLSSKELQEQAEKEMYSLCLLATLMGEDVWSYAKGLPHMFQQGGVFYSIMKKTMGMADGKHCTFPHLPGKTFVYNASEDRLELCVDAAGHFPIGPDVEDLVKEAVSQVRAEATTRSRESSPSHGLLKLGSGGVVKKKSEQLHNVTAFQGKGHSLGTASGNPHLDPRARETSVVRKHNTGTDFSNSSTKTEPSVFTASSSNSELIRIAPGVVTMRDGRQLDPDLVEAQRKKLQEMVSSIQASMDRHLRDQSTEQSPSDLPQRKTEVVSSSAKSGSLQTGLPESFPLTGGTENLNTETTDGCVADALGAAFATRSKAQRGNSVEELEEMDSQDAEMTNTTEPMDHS
- experimental_details: log2 ratio of Biotin-Ahx-Ub-VS probe labelling (fragment/DMSO); higher = less target engagement (more negative = stronger competition), active = hit call of the paper (q ≤ 0.05, log2 ratio ≤ -1)
- measurement_setup: compound concentration: 200 uM; treatment time: 3 h
Mark Not fulfilled for log2 ratio of Biotin-Ahx-Ub-VS probe labelling values under -0.6, and Fulfilled for everything at or above.

Please review the entries below; each comes with its answer.
> print(dat)
                        compound       measurement.target  assigned.label
1  Cc1nc(CNC(=O)CCl)c2ccccn12.Cl  VCPIP1 (UniProt Q96JH7)       Fulfilled
2    Cl.O=C(CCl)NCCN1CCc2ccccc21  VCPIP1 (UniProt Q96JH7)   Not fulfilled
3          Cc1noc(C)c1CNC(=O)CCl  VCPIP1 (UniProt Q96JH7)   Not fulfilled
4       O=C(CCl)N1CCOC2(CCC2)CC1  VCPIP1 (UniProt Q96JH7)       Fulfilled
5  Cl.Cn1c(CNC(=O)CCl)nc2cccnc21  VCPIP1 (UniProt Q96JH7)   Not fulfilled

Textbook exercise: given the entry CCN1C(=O)C2CN(C(=O)CCl)CCN2C1=O (centres undefined) , state whether its log2 ratio of Biotin-Ahx-Ub-VS probe labelling is greater than or equal to -0.6.
Fulfilled

Textbook exercise: given the entry O=C(CCl)NC1CCOc2ccccc21 (centres undefined) , state whether its log2 ratio of Biotin-Ahx-Ub-VS probe labelling is greater than or equal to -0.6.
Not fulfilled

Textbook exercise: given the entry `NS(=O)(=O)c1ccc(Cl)c(NC(=O)CCl)c1` , state whether its log2 ratio of Biotin-Ahx-Ub-VS probe labelling is greater than or equal to -0.6.
Not fulfilled
